# assayed_system: cGMP-inhibited 3',5'-cyclic phosphodiesterase 3A (Homo sapiens, UniProt Q14432)
# Sequence (Q14432 whole entry): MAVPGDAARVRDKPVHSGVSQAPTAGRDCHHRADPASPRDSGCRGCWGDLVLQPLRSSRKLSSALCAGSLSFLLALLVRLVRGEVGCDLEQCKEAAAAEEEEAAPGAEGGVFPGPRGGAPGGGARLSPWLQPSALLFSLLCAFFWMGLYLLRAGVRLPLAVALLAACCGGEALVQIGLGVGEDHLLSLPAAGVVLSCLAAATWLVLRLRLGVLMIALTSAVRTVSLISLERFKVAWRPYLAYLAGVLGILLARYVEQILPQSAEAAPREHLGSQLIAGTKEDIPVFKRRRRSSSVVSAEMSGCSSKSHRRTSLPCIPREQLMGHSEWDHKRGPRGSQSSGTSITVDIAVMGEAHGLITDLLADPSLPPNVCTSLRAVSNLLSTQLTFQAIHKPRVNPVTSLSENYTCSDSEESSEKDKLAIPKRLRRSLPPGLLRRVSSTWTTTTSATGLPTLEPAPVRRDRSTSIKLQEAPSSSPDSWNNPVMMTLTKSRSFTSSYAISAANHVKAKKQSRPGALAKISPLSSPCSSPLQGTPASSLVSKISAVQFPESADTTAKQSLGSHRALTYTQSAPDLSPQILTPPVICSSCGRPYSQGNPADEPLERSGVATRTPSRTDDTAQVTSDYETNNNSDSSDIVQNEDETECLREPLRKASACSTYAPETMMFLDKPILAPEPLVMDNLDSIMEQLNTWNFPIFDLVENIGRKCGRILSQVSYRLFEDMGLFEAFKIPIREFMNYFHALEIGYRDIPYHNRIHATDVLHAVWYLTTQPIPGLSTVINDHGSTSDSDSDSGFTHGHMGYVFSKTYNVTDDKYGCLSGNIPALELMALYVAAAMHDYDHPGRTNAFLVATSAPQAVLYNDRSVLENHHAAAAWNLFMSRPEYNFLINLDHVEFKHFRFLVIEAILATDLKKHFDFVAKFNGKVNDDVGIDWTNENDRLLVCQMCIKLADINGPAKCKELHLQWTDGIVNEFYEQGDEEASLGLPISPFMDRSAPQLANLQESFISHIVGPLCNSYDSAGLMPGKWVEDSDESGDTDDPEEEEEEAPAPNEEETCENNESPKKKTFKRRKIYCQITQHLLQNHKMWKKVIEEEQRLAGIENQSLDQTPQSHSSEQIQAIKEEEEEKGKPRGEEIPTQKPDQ
assay_metric: IC50

IC50 reading for `CC(C)(O)CCc1ccc(OCc2cc(-c3cccc(OC(F)F)c3)c3ncccc3c2)cc1` : ≥ 29 µM

---

# assayed_system: 3',5'-cyclic-AMP phosphodiesterase 4C (Homo sapiens)
# Sequence (Q08493 whole entry): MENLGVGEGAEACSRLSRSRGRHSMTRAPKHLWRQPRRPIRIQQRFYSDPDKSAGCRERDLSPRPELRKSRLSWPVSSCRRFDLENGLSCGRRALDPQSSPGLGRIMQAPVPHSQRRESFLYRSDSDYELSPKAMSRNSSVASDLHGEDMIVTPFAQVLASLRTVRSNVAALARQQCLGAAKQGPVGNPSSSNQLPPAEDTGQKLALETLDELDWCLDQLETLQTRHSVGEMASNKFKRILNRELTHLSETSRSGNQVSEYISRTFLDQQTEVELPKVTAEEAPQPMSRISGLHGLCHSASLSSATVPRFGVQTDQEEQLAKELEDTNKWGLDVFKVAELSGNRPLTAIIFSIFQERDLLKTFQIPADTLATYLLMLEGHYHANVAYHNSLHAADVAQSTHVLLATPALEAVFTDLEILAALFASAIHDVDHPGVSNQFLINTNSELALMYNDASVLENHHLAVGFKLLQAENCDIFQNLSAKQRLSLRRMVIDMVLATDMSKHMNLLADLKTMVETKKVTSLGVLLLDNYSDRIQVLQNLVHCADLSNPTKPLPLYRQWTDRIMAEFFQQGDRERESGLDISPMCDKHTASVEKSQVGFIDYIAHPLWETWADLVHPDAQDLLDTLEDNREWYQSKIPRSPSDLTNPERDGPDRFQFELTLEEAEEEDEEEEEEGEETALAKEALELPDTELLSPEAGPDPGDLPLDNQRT
assay_metric: pIC50
Answers are plain numbers, as −log10 of the molar value.

Solved cases below.
INSERT INTO assay_data (compound_structure_string, assay_metric, recorded_number) VALUES
  ('COc1cccc(-c2cc(COc3cccc(Cl)c3)cc3cccnc23)c1', 'pIC50', 6.99),
  ('COc1cccc(-c2cc(COc3ccccc3Cl)cc3cccnc23)c1', 'pIC50', 6.33),
  ('Cc1cccc(-c2cc(COc3ccc(CCC#N)cc3)cc3cccnc23)c1', 'pIC50', 5.87);

Next molecule, please.
Per the record, `N#CCCc1ccc(OCc2cc(-c3cccc(F)c3)c3ncccc3c2)cc1` has pIC50 of 5.91
